FYI, the data here is from patent US20200087363A1.

The following binders are shown together with reported peptide exchange yield values.
- target_system: T1, HLA-B*44:05 (human)
- T1 construct: also called peptide-receptive MHC class I molecule
- assay_name: UV peptide exchange, anti-b2m ELISA
test_readout: peptide exchange yield

- EEMERDLDMY: 50 to 75%
- EEHIFSAF: 20 to 50%
- EECDKAFHF: 50 to 75%
- IEAYLERIGY: 50 to 75%
